Measured values drawn from patent US11739098B2 for this set.

biological target: human TLR8 (Homo sapiens); assay: TLR8 inhibition reporter assay (HEK-Blue cells, SEAP reporter, R848 stimulation); settings: HEK-Blue cells overexpressing human TLR8, SEAP reporter, R848 15.9 μM
Sequence (Q9NR97 27-1041): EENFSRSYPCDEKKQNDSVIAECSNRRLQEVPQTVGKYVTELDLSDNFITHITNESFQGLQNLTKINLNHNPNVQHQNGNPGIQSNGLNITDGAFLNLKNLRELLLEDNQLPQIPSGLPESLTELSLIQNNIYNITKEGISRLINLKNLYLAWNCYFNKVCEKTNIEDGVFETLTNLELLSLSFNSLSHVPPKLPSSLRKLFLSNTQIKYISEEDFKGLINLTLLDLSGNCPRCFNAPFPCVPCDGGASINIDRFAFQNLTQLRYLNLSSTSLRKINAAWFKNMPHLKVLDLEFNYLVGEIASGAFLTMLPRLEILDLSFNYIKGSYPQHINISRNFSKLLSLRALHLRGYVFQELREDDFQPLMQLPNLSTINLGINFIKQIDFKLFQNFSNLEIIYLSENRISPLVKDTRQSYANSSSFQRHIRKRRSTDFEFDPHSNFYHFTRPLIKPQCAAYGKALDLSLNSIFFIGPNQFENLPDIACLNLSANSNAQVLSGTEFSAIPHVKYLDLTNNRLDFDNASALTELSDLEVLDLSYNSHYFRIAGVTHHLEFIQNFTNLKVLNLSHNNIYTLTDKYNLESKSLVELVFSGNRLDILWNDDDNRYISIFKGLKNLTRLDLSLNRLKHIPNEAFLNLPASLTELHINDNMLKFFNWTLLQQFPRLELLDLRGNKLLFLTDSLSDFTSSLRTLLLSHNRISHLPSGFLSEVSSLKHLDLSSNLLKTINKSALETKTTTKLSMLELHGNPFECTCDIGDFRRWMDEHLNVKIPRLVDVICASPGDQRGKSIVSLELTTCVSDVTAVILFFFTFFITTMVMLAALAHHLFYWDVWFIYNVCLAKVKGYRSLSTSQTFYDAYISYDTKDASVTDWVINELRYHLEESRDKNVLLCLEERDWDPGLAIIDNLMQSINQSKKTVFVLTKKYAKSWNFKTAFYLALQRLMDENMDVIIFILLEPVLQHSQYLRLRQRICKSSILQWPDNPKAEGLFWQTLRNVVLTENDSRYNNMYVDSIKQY
Please provide measured IC50 for the entries that follow.

[Q] Report IC50 for Cc1c(-c2ccnc3[nH]cc(O)c23)[nH]c2ccc(C3CCNCC3)cc12 please.
[A] 1000 to 50000 nM

[Q] Report IC50 for CNC(=O)CN1CCC(c2ccc3[nH]c(-c4cc(OC)n5ncnc5c4)c(C(C)C)c3c2)CC1 please.
[A] < 100 nM

[Q] Report IC50 for CCc1c(-c2cccc3c2cnn3C)[nH]c2ccc(C3CCN(C(=O)CN(C)C)CC3)cc12 please.
[A] > 50000 nM

[Q] Report IC50 for Cc1cc(-c2[nH]c3ccc(C4CCN(C(=O)CN5CC6(COC6)C5)CC4)cc3c2C(C)C)cn2nnnc12 please.
[A] < 100 nM

[Q] Report IC50 for Cc1cc(-c2[nH]c3ccc(C4CCNCC4)cc3c2C(C)C)cc2nccnc12 please.
[A] 100 to 1000 nM

[Q] Report IC50 for CCc1c(-c2ccnc3[nH]ccc23)[nH]c2ccc(C3CCN(Cc4cccn4C)CC3)cc12 please.
[A] < 100 nM

[Q] Report IC50 for CC(C)c1c(-c2cnc3cn[nH]c3c2)[nH]c2ccc(C3CCNCC3)cc12 please.
[A] < 100 nM

[Q] Report IC50 for CCCCc1nc(Cl)c(CN2CCC(c3ccc4[nH]c(-c5ccnc6[nH]ncc56)c(C(C)C)c4c3)CC2)[nH]1 please.
[A] < 100 nM

---

biological target: UniProt Q9NR96; assay: TLR9 inhibition reporter assay (HEK-Blue cells, SEAP reporter, ODN2006 stimulation); conditions: HEK-Blue cells overexpressing human TLR9, SEAP reporter, ODN2006 5 nM
Sequence (Q9NR96 26-1032): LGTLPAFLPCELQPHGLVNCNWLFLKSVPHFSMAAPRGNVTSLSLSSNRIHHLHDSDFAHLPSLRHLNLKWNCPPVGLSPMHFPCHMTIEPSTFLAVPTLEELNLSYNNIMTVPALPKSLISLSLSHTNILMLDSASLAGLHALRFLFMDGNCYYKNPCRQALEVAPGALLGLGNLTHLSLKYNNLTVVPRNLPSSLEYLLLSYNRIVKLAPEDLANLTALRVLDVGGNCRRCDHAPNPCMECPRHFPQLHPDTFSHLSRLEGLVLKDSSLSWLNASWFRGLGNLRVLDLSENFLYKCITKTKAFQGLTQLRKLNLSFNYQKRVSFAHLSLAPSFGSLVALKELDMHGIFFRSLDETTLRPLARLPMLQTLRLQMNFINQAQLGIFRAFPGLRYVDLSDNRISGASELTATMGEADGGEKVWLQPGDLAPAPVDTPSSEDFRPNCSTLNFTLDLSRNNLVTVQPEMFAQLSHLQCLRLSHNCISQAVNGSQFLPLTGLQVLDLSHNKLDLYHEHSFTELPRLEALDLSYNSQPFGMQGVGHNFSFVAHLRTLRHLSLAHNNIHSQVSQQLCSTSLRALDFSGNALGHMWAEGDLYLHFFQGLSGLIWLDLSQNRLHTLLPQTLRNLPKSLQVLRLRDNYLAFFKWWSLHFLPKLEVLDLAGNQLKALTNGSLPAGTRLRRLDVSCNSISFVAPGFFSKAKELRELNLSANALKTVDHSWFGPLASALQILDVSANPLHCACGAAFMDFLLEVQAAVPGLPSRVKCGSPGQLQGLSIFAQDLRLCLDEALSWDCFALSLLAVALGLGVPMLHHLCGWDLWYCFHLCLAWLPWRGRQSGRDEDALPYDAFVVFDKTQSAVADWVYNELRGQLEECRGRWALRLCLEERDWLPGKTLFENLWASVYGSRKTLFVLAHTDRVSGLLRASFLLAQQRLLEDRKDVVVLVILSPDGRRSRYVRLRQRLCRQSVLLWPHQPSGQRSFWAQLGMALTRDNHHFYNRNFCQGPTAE
Please provide measured IC50 for the entries that follow.

[Q] Report IC50 for CC(C)c1c(-c2cn(C)c3ncccc23)[nH]c2ccc(C3CCN(CC(C)(C)O)CC3)cc12 please.
[A] 1 to 50 µM

[Q] Report IC50 for CCc1c(-c2c(C)cnc3[nH]ccc23)[nH]c2ccc(C3CCNCC3)cc12 please.
[A] 0.1 to 1 µM

[Q] Report IC50 for Cc1cc(-c2[nH]c3ccc(C4CCN(C(=O)C[C@H](C)O)CC4)cc3c2C(C)C)cc2ncnn12 please.
[A] 1 to 50 µM

[Q] Report IC50 for CCc1c(-c2ccn3ccnc3c2)[nH]c2ccc(C3CCNCC3)cc12 please.
[A] 0.1 to 1 µM

[Q] Report IC50 for Cc1cc(-c2[nH]c3ccc(C4CCNCC4)cc3c2C(C)C)cn2ccnc12 please.
[A] 0.1 to 1 µM

[Q] Report IC50 for Cc1cc(-c2[nH]c3ccc(C4CCN(C(=O)CN(C)C)CC4)cc3c2C(C)C)cc2nccn12 please.
[A] 0.1 to 1 µM

[Q] Report IC50 for CCN1CCC(N2CCC(c3ccc4[nH]c(-c5ccnc6[nH]ccc56)c(C)c4c3)CC2)CC1 please.
[A] < 0.1 µM

[Q] Report IC50 for CCc1c(-c2ccnc3[nH]ncc23)[nH]c2ccc(C3CCN(C4CCN(C(C)C)CC4)CC3)cc12 please.
[A] < 0.1 µM

[Q] Report IC50 for CCCN1CCC(c2ccc3[nH]c(-c4cc(OC)c5ncnn5n4)c(C(C)C)c3c2)CC1 please.
[A] 1 to 50 µM

[Q] Report IC50 for CC(C)c1c(-c2ccnc3cn[nH]c23)[nH]c2ccc(C3CCNCC3)cc12 please.
[A] 0.1 to 1 µM

[Q] Report IC50 for CNCC(=O)N1CCC(c2ccc3[nH]c(-c4cn5cc(C)nc5cc4C)c(C(C)C)c3c2)CC1 please.
[A] 0.1 to 1 µM

[Q] Report IC50 for Cc1cc2nnnn2cc1-c1[nH]c2ccc(C3CCN(Cc4ncn(C)n4)CC3)cc2c1C(C)C please.
[A] 1 to 50 µM

[Q] Report IC50 for Cc1cc(-c2[nH]c3ccc(C4CCN(C5COC5)CC4)cc3c2C(C)C)cc2cccnc12 please.
[A] 1 to 50 µM

[Q] Report IC50 for CC(C)c1c(-c2cn(C)c3ncccc23)[nH]c2ccc(C3CCN(CC(=O)N4CCOCC4)CC3)cc12 please.
[A] 1 to 50 µM

[Q] Report IC50 for CC(C)c1c(-c2cn(C)c3ncncc23)[nH]c2ccc(C3CCN(C(=O)CN(C)C)CC3)cc12 please.
[A] 1 to 50 µM

[Q] Report IC50 for CN(C)C(=O)CN1CCC(c2ccc3[nH]c(-c4cc(F)c5nccn5c4)c(CC(F)F)c3c2)CC1 please.
[A] 1 to 50 µM

---

Please provide measured IC50 for the entries that follow.
target: UniProtKB Q9NR97; test: TLR8 inhibition reporter assay (HEK-Blue cells, SEAP reporter, R848 stimulation); conditions: HEK-Blue cells overexpressing human TLR8, SEAP reporter, R848 15.9 μM

[Q] Report IC50 for CCc1c(-c2cnc3cn[nH]c3c2)[nH]c2ccc(C3CCN(C4CCN(C(C)C)CC4)CC3)cc12 [Example 836] please.
[A] < 100 nM

[Q] Report IC50 for CC(C)c1c(-c2ccc(C#N)c3ncccc23)[nH]c2ccc(C3CCN(CC(C)(C)O)CC3)cc12 [Example 766] please.
[A] < 100 nM

[Q] Report IC50 for CC(C)c1c(-c2cn(C)c3ncccc23)[nH]c2ccc(C3CCN(CCS(N)(=O)=O)CC3)cc12 [Example 783] please.
[A] < 100 nM

[Q] Report IC50 for COc1cc(-c2[nH]c3ccc(C4CCN(Cc5cnn[nH]5)CC4)cc3c2C(C)C)nn2ncnc12 [Example 860] please.
[A] < 100 nM

[Q] Report IC50 for Cc1c(-c2ccnc3[nH]ccc23)[nH]c2ccc(C3CCNCC3)cc12 [Example 2] please.
[A] < 100 nM

[Q] Report IC50 for CC(C)c1c(-c2ccc3scnc3c2)[nH]c2ccc(C3CCNCC3)cc12 [Example 12] please.
[A] 1000 to 50000 nM

[Q] Report IC50 for CC(C)c1c(-c2ccn3nnnc3c2)[nH]c2ccc(C3CCNCC3)cc12 [Example 82] please.
[A] 100 to 1000 nM

[Q] Report IC50 for CC(C)c1c(-c2cnc3ccnn3c2)[nH]c2ccc(C3CCN(Cc4cnn(C)c4)CC3)cc12 [Example 932] please.
[A] 1000 to 50000 nM

---

Please provide measured IC50 for the entries that follow.
Target: human TLR7 (Homo sapiens, UniProt Q9NYK1)
Sequence (Q9NYK1 27-1049): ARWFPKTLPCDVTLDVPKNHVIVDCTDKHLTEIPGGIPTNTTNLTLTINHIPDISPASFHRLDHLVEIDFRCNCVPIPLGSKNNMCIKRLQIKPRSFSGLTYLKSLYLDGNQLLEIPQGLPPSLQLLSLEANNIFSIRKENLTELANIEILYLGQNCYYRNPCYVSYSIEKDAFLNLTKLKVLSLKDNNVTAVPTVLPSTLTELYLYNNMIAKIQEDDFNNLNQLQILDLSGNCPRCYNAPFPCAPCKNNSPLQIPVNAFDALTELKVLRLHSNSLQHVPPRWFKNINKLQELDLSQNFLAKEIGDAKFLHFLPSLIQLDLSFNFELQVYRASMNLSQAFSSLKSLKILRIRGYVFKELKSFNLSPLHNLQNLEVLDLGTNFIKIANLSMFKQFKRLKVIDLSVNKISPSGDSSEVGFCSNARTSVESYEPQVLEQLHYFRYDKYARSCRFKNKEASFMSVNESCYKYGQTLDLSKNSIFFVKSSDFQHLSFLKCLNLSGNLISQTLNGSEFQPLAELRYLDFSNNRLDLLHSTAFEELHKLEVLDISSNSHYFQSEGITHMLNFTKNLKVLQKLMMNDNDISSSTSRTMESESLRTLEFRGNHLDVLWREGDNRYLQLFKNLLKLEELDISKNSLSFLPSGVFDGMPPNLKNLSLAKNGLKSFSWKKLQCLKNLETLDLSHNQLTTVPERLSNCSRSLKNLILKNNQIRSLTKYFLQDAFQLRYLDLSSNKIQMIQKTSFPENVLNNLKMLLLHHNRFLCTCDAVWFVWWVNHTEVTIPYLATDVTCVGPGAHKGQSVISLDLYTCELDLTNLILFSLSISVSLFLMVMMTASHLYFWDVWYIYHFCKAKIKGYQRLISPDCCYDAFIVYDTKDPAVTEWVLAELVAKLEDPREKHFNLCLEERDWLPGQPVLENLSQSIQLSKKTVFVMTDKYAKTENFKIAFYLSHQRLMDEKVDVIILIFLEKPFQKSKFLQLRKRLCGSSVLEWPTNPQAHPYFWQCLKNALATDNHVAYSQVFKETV
Test: TLR7 inhibition reporter assay (HEK-Blue cells, SEAP reporter, gardiquimod stimulation)
Conditions: HEK-Blue cells overexpressing human TLR7, SEAP reporter, gardiquimod 7.5 μM

[Q] Which IC50 is reported with human TLR7 (Homo sapiens, UniProt Q9NYK1) for this entry: CC(C)c1c(-c2ccc3[nH]ccc3c2)[nH]c2ccc(C3CCNCC3)cc12 ?
[A] 1 to 50 µM

[Q] Which IC50 is reported with human TLR7 (Homo sapiens, UniProt Q9NYK1) for this entry: Cc1cc(-c2[nH]c3ccc(C4CCN(C(=O)CN5CC6(COC6)C5)CC4)cc3c2C(C)C)cn2nnnc12 ?
[A] < 0.1 µM

[Q] Which IC50 is reported with human TLR7 (Homo sapiens, UniProt Q9NYK1) for this entry: Cc1nn2ccc(-c3[nH]c4ccc(C5CCN(CC(=O)N(C)C)CC5)cc4c3C(C)C)nc2c1F ?
[A] > 3.13 µM

[Q] Which IC50 is reported with human TLR7 (Homo sapiens, UniProt Q9NYK1) for this entry: Cc1cc(-c2[nH]c3ccc(C4CCN(CCCC(F)(F)F)CC4)cc3c2C(C)C)cn2nnnc12 ?
[A] < 0.1 µM
